Data origin: the supplement of paper PMC9170038

system: K4 kissing-loop RNA reporter; experiment: apparent KD of K4 kissing-loop reporter; higher = weaker reporter binding; settings: Eterna round: R107; input ligand: theophylline 20 uM
I would appreciate it if you labelled entries True when apparent KD of K4 kissing-loop reporter is 200 nM or higher, otherwise False.

Below, 3 sequences whose answers are already recorded.
- GCAGCUCGGGAGUGAUGUUCUCGUAGAGGAAAGGAUAUGUACUUAGACAGAAGGUUCGCAAUUUGCGGUCUUAAGAUAGAAUAAC [theeternabot_sameState_KL_FMN_A_40]: True
- UAUUUAGUGACGGCCGCCACUAUUGUGAUUUAAUUGUUUGAGUGAUGUUUUGAUGUUUGAUUUUGUAGGACCGGGUUAUGUGUUA [tyttmullin]: True
- GCGCGCGGCGGAGGAUAUAGCAGGUGAUCCAAGAAAGUGAGUGAUGUUUAUGGAGAUGAUGAUAUGUUAGAAGGCCGCCGCGCGC [abcdefghijklmnopqrstu]: True

Please indicate if the recorded apparent KD of K4 kissing-loop reporter for AAACAUUGGUCUGAUACCAGCUGAUCGGAAACGAUCUUGCUGGAGUGAUGUUCCAGGAAAAGCCCUUGGCAGCAGACCGAUGAAA [MAT - Same State Theophlline B - Mod of Eli - D24] meets or exceeds 200 nM.
True

Please indicate if the recorded apparent KD of K4 kissing-loop reporter for GGAUAGGAUAGAGGAUAUGGUUUAGGCAAGAAUAACUUGUCAUGUAAAUCCAUGAGGAGUGAUGUUCCAGAAGGCUGUCCUAUCG [MatMod 8 - Jieux - Exclusion - FMN B] meets or exceeds 200 nM.
False

Please indicate if the recorded apparent KD of K4 kissing-loop reporter for UAUAGAAACGUCCUAUCAGUAAAAUGGGAAGGAGCGAGGAAGGACUCAGGUAGGUCGCCCAAUAACCUUAGUGAUGUUAAGGAAA [Version 2] meets or exceeds 200 nM.
False

###

sequences and their reported apparent KD of K4 kissing-loop reporter
tested on: K4 kissing-loop RNA reporter; experiment: apparent KD of K4 kissing-loop reporter; higher = weaker reporter binding; settings: Eterna round: R107; input ligand: none
Use nM as the unit, but write only the number.

Below, 5 sequences whose answers are already recorded.
* AAUGUGCAGGGAAGGAGCGUAGUCCAGUGAUGUUGGAGUUAAAUACCAGUGAUGUUGGUUAUACAGGUAGGUCGCCCUAAAGCGC [Exclusion Arginine B Gf 5] | 81.3
* UCCGAGCUUAUUGAUACCAGUUCGGCGAGCUACUAGAGUGAUGUUCUUGUAAGCGUACACAACCCUUGGCAGCAAUAGAGGAGGU [theeternabot_sameState_KL_Theo_B_37] | 135
* AGUGAUGUGGGAAGGAGCGGUAUAUGAGUUCAGUGAUGUUGAAGUGAUGCUGUAGUGUUGUGCCAGGUAGGUCGCCUAGAUGUUA [KL-XARG B25] | 316
* UUAGUCAGAUUAUUAUUAGCCUGCGAGUCUAAGGAUAUCCGAAUUCGGAGAAGGUAGUGAUGUUACUUUGGCAGGCACUGACAUU [AK9 Exc FMN A] | 431
* GAGCCAGAGGUUGCUGCGGGUUCCAGAGAUACCAGCCGUAUUGAAGGCCCUUGGCAGCUCGAGUGAUGUUCGAGCCGCCUCUGAC [Isquleorve] | 97.2

Report measured apparent KD of K4 kissing-loop reporter on K4 kissing-loop RNA reporter; entry: GGACAACUAUGUCCCAUACAAACAAGAGAUACCAGCCAUCAUAGAGGCCCUUGGCAGCUCAUAUAAUCCAGUGAUGUUGGAUUUC [Atgebeus]
179

###

tested on: K4 kissing-loop RNA reporter; test: apparent KD of K4 kissing-loop reporter; higher = weaker reporter binding; settings: Eterna round: R107; input ligand: theophylline 20 uM
sequences and their reported apparent KD of K4 kissing-loop reporter
Use nM as the unit, but write only the number.

Below, 4 sequences whose answers are already recorded.
• UGUCAUUGGUCGGCCGCCACUUUGUAUGGAGUGAUGUUUUGUAGAUUGUGUUGAAAGGUGUGGUGAAGGACCGGGACCGAUGACU [FiskerMod 24 - Jieux - Same State - Tryptophan B] = 841
• AAUCGCGAGUCAGAUACCAGUUGGCUCGAGAGUCAGUGAUGUUGAUGUAAAUCUUAGGCGAACCCUUGGCAGCUGUCACCAGUCC [theeternabot_sameState_KL_Theo_B_27] = 346
• AGCGGCGCGCUGGAUACCAGUGUCCGACGCGUUAGUAUAGAUCCAAAGUGAUGUUUUGGUCACCCUUGGCAGCCACCUCUGUCGG [theeternabot_exclusion_KL_Theo_B_29] = 257
• UUCCGGGCCGAAGGAUAUUGGAGUGAUGUUUCAAGACGUUCGUCCCAGCCCAUAGUAACUAUCGCCCAAGAAGGUCGUAUUGAAU [theeternabot_exclusion_KL_FMN_B_13] = 189

Now examine the next entry.
Fill in apparent KD of K4 kissing-loop reporter for record CCGAUACAUUAUUCUACGGCCGAGAGUGAUACCAGCCAUAUUUAUGGCCCUUGGCAGCGCAGAUGCAGUGAUGUUGCAUACUUAC [Same State Theophylline A GF 19]
115

###

test system: K4 kissing-loop RNA reporter; assay: apparent KD of K4 kissing-loop reporter; higher = weaker reporter binding; conditions: Eterna round: R107; input ligand: FMN 200 uM
readout: apparent KD of K4 kissing-loop reporter
Write the numeric value and append its unit.

* AGUGAUGUUCCUCCUCUUGGUCUUGGUGGGCGAGGACCGGUACGGCCGCCACUCGAUGUGGGAGUGAUGUUUCCAUAUGAUGUUU [Tryptophan A] | 0.568 µM
* GAAAGAAAGUAUGAUACCAGACACCCGAGUGAUGUUCGGAGCAGUGUGUUGUUCUUUUAAGUCCCUUGGCAGCAUAAAAGAAAAG [whbob_SS_Theo_B_sa85] | 0.116 µM
* AGUGAUGUUUCUUUUAAGAGUGAUGUUUUUCGAGGACCGGUACGGCCGCCACUCGAGUGAUGAGUGCGUUGUUGUGAUGUUUAGU [#12 K4 Tryptophan A Exclusion] | 0.461 µM
* UGAUACCAGACGGCCGCCACUAGGACCGGGAGUGAUGUUCCGAAAAUUAAAUGCUCGGCCGCCACUAGGACCGGGUCUGGUAUCU [TrypBX 28 #DoubleAptamer #SwitchBubble] | 0.478 µM
* CAAGUCGAAAAGUGAUGUUUUUCAUACGAUACCAGCAACCAGACAUGCCCUUGGCAGCGUCCAUUACGUUUCUGAGCCCGUACAG [theeternabot_exclusion_KL_Theo_A_40] | 0.36 µM

Fill in apparent KD of K4 kissing-loop reporter for record AGGUUUUGAUUAGGAUAUGCACUGAGGAGGAGAAUAUAGUGAUGUUAUAUAAGAGGAAGUAGUAGAGUAGAAGGGAUUGAGGUUU [SSFMNB.S]
0.208 µM

Fill in apparent KD of K4 kissing-loop reporter for record CCGAUACAUUAUUCUACGGCCGAGAGUGAUACCAGCCAUAUUUAUGGCCCUUGGCAGCGCAGAUGCAGUGAUGUUGCAUACUUAC [Same State Theophylline A GF 19]
0.0857 µM

Fill in apparent KD of K4 kissing-loop reporter for record UCCCGAGUGAUGUUCGGCGCGGUCACCGAAGGAGCGGGCGAAAGCCCAGGUAGGUCGCGGUAGCGGAGUGAUUCUCCGCGACCGC [Same State Arginine A GF 24]
0.509 µM

Fill in apparent KD of K4 kissing-loop reporter for record GGAUAGGACAGAGGAUAUCCUUGAGGCAAGAAACUUGUCUCUAAAAGGAUGAACCUAGUGAUGUUAGGAGAAGGCUGUCCUAUCG [FmnBX 13 - #SwitchBubble #StaticStem #Palindromic]
0.132 µM

Fill in apparent KD of K4 kissing-loop reporter for record ACGAAAUGCGACUCCUAGUUACACCGGGAAGGAGCGCGGAUAACCGCAGGUAGGUCGCCCGGAAGCCGGACCAGUGAUGUUGGUC [Exclusion Arginine A Gf 27]
0.24 µM

Fill in apparent KD of K4 kissing-loop reporter for record GCGGCCCAGCCGGAUACCAGUGAGCCGCUGGGAACCGCGGGCCCAGAGUGAUGUUCGGGACACCCUUGGCAGCCGCCUGGGUCGC [#2 Same State - Theophylline B Attempt #20 (HarryS)]
0.486 µM

###

test system: K4 kissing-loop RNA reporter; test: apparent KD of K4 kissing-loop reporter; higher = weaker reporter binding; conditions: Eterna round: R107; input ligand: none;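 also: bound reporter read as fluorescence of individual clusters on recovered sequencing chips by microscopy, with normalized cluster intensities fitted with a binding model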
sequences and their reported apparent KD of K4 kissing-loop reporter
Use nM as the unit, but write only the number.

Fill in apparent KD of K4 kissing-loop reporter for record UGUGUACCGGGAAGGAGCGUGAAUGAUAAUGGAUAUAGUGAUGUUAUAUAUACGAACGAAUCGCAGGUAGGUCGCCCGGAUCCCU [SSArgB.X]
639

Fill in apparent KD of K4 kissing-loop reporter for record AAGGUCACCACUACAGUGAUGUUGUAGGAGCAGGAUAUGCAGAAAUGCAGAAGGGCUCGCUCCAGGUGACCGAAUGAAACAUUCA [Omei KL FMN A SS A v4]
382

Fill in apparent KD of K4 kissing-loop reporter for record AUCGUUGUCUGAGGAUAUCGGUUAUCUGUAGUGAUGUUACAGUAUAUUGAUAUUAAAGAUUCUAUUCGAGAAGGCAGACAACGUA [JR_Nu3_ExcFMNB_Sub023]
67.2
